Data provenance: patent US12673961B2

Catalogue of compounds with associated AC50
- TARGET SYSTEM: human PAH with the R408W mutation (Homo sapiens, UniProt P00439, R408W)
- Construct: expressed in transfected cells
- Sequence (P00439 whole entry R408W): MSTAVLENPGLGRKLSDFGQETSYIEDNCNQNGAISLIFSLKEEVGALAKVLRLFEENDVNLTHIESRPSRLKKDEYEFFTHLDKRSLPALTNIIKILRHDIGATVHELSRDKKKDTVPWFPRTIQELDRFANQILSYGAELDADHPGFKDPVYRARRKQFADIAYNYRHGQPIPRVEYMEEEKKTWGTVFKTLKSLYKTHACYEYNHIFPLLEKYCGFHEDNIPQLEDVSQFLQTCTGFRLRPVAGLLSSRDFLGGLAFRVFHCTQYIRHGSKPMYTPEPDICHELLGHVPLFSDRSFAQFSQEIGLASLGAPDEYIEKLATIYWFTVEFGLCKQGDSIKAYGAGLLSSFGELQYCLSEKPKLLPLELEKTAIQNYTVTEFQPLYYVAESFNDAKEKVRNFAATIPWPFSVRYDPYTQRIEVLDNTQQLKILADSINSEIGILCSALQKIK
- PROCEDURE DETAILS: Cell Based Phenylalanine Flux Assay
- CONDITION CONTEXT: A375 cells expressing human R408W PAH; 24 hrs with compound, then sepiapterin and 13C9,15N-Phenylalanine for 4 hours; 13C-Tyrosine by LC-MS; average where tested multiple times; read-out: AC50

Here are 8 compounds together with their reported answers.
{"columns": ["SMILES REPR", "AC50"],
 "data": [
  ["CC(C)(F)c1nnc(C(=O)N2CCc3[nH]cnc3[C@@H]2c2cc3c(Br)cccn3n2)o1", "1000 to 5000 nM"],
  ["O=C(c1nnc(-c2cnccn2)o1)N1CCc2[nH]cnc2[C@H]1c1cc2c(C(F)F)cccn2n1", "< 500 nM"],
  ["CC(C)c1cccn2nc([C@H]3c4nc[nH]c4CCN3c3nnc(-c4cnccn4)o3)cc12", "> 5000 nM"],
  ["Cc1cccc2cc([C@H]3c4nc[nH]c4CCN3c3nnc(-c4c(F)cccc4F)o3)nn12", "> 5000 nM"],
  ["Cc1ncccc1-c1nnc(N2CCc3[nH]cnc3[C@@H]2c2cc3c(Cl)cccn3n2)o1", "> 5000 nM"],
  ["CC(C)c1nnc(C(=O)N2CCc3[nH]cnc3[C@H]2c2cc3c(Cl)cccn3n2)o1", "< 500 nM"],
  ["O=C(c1oc(-c2ccccn2)nc1C1CC1)N1CCc2[nH]cnc2[C@H]1c1cc2c(C(F)(F)F)cccn2n1", "< 500 nM"],
  ["Cc1ncccc1-c1nnc(N2CCc3[nH]cnc3[C@H]2c2cc3c(C)cccn3n2)o1", "500 to 1000 nM"]
]}

Exercise: Tell me reported AC50 for Fc1cccn2nc([C@@H]3c4nc[nH]c4CCN3c3nnc(C(F)(F)F)o3)cc12 , tested with human PAH with the R408W mutation (Homo sapiens, UniProt P00439, R408W).
Key: 500 to 1000 nM

Exercise: Lab note: need AC50 with human PAH with the R408W mutation (Homo sapiens, UniProt P00439, R408W) for entry Cn1ccc(-c2nnc(C(=O)N3CCc4[nH]cnc4[C@@H]3c3cc4c(Br)cccn4n3)o2)n1 , please look it up.
Key: > 5000 nM

Exercise: For human PAH with the R408W mutation (Homo sapiens, UniProt P00439, R408W), provide AC50 of Cc1cccn2nc([C@@H]3c4nc[nH]c4CCN3c3ccccn3)cc12 please.
Key: < 500 nM

Exercise: Hello, I am looking for reported AC50 with human PAH with the R408W mutation (Homo sapiens, UniProt P00439, R408W) for CC(C)(C)c1nnc(C(=O)N2CCc3[nH]cnc3[C@H]2c2cc3cccc(C(F)F)n3n2)o1 . Could you help?
Key: 500 to 1000 nM

Exercise: Can you look up AC50 on human PAH with the R408W mutation (Homo sapiens, UniProt P00439, R408W) for CC(C)c1cccn2nc([C@H]3c4nc[nH]c4CCN3c3nnc(C(C)(F)F)o3)cc12 ?
Key: > 5000 nM

Exercise: State its AC50 on human PAH with the R408W mutation (Homo sapiens, UniProt P00439, R408W): Cc1ncccc1-c1nnc(N2CCc3[nH]cnc3[C@H]2c2cc3c(F)cccn3n2)o1
Key: < 500 nM

Exercise: Find the measured AC50: item Cc1cccnc1-c1nnc(N2CCc3[nH]cnc3[C@@H]2c2cc3cccc(Cl)n3n2)o1 , target or system human PAH with the R408W mutation (Homo sapiens, UniProt P00439, R408W).
Key: > 5000 nM

Exercise: // fetch human PAH with the R408W mutation (Homo sapiens, UniProt P00439, R408W) AC50 for O=C(c1nnc(C2CCC2)o1)N1CCc2[nH]cnc2[C@H]1c1cc2c(C(F)F)cccn2n1
Key: < 500 nM

Exercise: Value wanted: AC50 (human PAH with the R408W mutation (Homo sapiens, UniProt P00439, R408W)) of entry Clc1cccn2nc([C@@H]3c4nc[nH]c4CCN3c3nnc(-c4cnccn4)o3)cc12
Key: < 500 nM

Exercise: Give recorded AC50 with human PAH with the R408W mutation (Homo sapiens, UniProt P00439, R408W) for the following compound: Cc1cccn2nc([C@H]3c4nc[nH]c4CCN3C(=O)c3nnc(-c4ccn(C(F)(F)F)n4)o3)cc12
Key: 1000 to 5000 nM

Exercise: Write down the reported AC50 of O=C(c1nnc(-c2cnn(C(F)(F)F)c2)o1)N1CCc2[nH]cnc2[C@@H]1c1cc2c(F)cccn2n1 , test system: human PAH with the R408W mutation (Homo sapiens, UniProt P00439, R408W).
Key: 1000 to 5000 nM

Exercise: // map Cc1cccn2nc([C@@H]3c4nc[nH]c4CCN3C(=O)c3cnc(C(C)(C)C)o3)cc12 to recorded AC50 (system: human PAH with the R408W mutation (Homo sapiens, UniProt P00439, R408W))
Key: < 500 nM

Exercise: Notebook: pull reported AC50 for human PAH with the R408W mutation (Homo sapiens, UniProt P00439, R408W), entry Cn1ccc(-c2ccc3c(C(=O)N4CCc5[nH]cnc5[C@@H]4c4cc5ccccn5n4)cnn3c2)n1
Key: 1000 to 5000 nM

Exercise: Item: Cc1cccn2nc([C@@H]3c4nc[nH]c4CCN3c3nnc(-c4cccc(F)n4)o3)cc12 Test system: human PAH with the R408W mutation (Homo sapiens, UniProt P00439, R408W) Read-out: AC50 Value: ?
Key: < 500 nM

Exercise: Item Clc1cccn2nc([C@@H]3c4nc[nH]c4CCN3c3nnc(-c4cccnc4)o3)cc12 with human PAH with the R408W mutation (Homo sapiens, UniProt P00439, R408W) - AC50?
Key: 500 to 1000 nM

Exercise: Please state recorded AC50 (tested on human PAH with the R408W mutation (Homo sapiens, UniProt P00439, R408W)) of Cc1ccc2cc([C@H]3c4nc[nH]c4CCN3C(=O)c3nnc(-c4cnn(C)c4)o3)nn2c1
Key: > 5000 nM

Exercise: // map Cc1ccc2c(C(=O)N3CCc4[nH]cnc4[C@H]3c3cc4c(C(F)(F)F)cccn4n3)cnn2c1 to recorded AC50 (system: human PAH with the R408W mutation (Homo sapiens, UniProt P00439, R408W))
Key: 500 to 1000 nM

Exercise: Which AC50 is reported with human PAH with the R408W mutation (Homo sapiens, UniProt P00439, R408W) for this entry: CC(C)c1nnc(C(=O)N2CCc3[nH]cnc3[C@@H]2c2cc3cccc(F)n3n2)o1 ?
Key: > 5000 nM

Exercise: Notebook: pull reported AC50 for human PAH with the R408W mutation (Homo sapiens, UniProt P00439, R408W), entry Cc1cnn(C)c1-c1nnc(C(=O)N2CCc3[nH]cnc3[C@@H]2c2cc3cccc(F)n3n2)o1
Key: 1000 to 5000 nM

Exercise: Observed AC50 on human PAH with the R408W mutation (Homo sapiens, UniProt P00439, R408W) for Cn1cc(-c2nnc(C(=O)N3CCc4[nH]cnc4[C@H]3c3cc4ccc(C(F)(F)F)cn4n3)o2)cn1 , please.
Key: 1000 to 5000 nM

Exercise: What AC50 appears in the records for this compound with human PAH with the R408W mutation (Homo sapiens, UniProt P00439, R408W)? Cc1cccc2cc([C@@H]3c4nc[nH]c4CCN3C(=O)c3nnc(-c4ccn(C(F)(F)F)n4)o3)nn12
Key: 500 to 1000 nM

Exercise: Entry O=C(c1nnc(C2CCC2)o1)N1CCc2[nH]cnc2[C@@H]1c1cc2c(F)cccn2n1 , system human PAH with the R408W mutation (Homo sapiens, UniProt P00439, R408W): what AC50 was measured?
Key: 1000 to 5000 nM

###

- TARGET SYSTEM: human PAH with the R408W mutation (Homo sapiens, UniProt P00439, R408W)
- Construct: expressed in transfected cells
- PROCEDURE DETAILS: Cell Based Phenylalanine Flux Assay;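 also: Ten-point dose curve from 2-fold serial dilutions, run in duplicate at 0.5% DMSO final, tracer step used 20 µM sepiapterin and 800 µM labeled phenylalanine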
- CONDITION CONTEXT: A375 cells expressing human R408W PAH; 24 hrs compound incubation; 13C-Tyrosine by LC-MS; average where tested multiple times; read-out: AC50
METRIC NAME: AC50

These solved cases illustrate the format of a correct answer.
{"columns": ["MOLECULE", "METRIC NAME", "RESULT VALUE"],
 "data": [
  ["Cc1ncccc1-c1nnc(C(=O)N2CCc3[nH]cnc3[C@@H]2c2cc3c(F)cccn3n2)o1", "AC50", "> 5 µM"],
  ["Cn1nc(C(F)F)nc1C(=O)N1CCc2[nH]cnc2C1c1cc2c(Cl)cccn2n1 (stereo in doubt)", "AC50", "1 to 5 µM"],
  ["O=C(c1nnc(-c2cnn(C3CCC3)c2)o1)N1CCc2[nH]cnc2[C@@H]1c1cc2c(F)cccn2n1", "AC50", "> 5 µM"]
]}

Exercise: Give AC50 (human PAH with the R408W mutation (Homo sapiens, UniProt P00439, R408W)) of the following molecule: C[C@@H](O)c1nc(C(F)F)c(C(=O)N2CCc3[nH]cnc3[C@H]2c2cc3cccc(Cl)n3n2)o1
Key: < 0.5 µM

Exercise: // lookup AC50 | system=human PAH with the R408W mutation (Homo sapiens, UniProt P00439, R408W) | key= Cn1nc(C(F)(F)F)nc1C(=O)N1CCc2[nH]cnc2[C@H]1c1cc2c(C(F)(F)F)cccn2n1
Key: < 0.5 µM

Exercise: # get_value(readout= AC50, system= human PAH with the R408W mutation (Homo sapiens, UniProt P00439, R408W)) for O=C(c1ccnn1C(F)F)N1CCc2[nH]cnc2[C@@H]1c1cc2ccc(C(F)(F)F)cn2n1
Key: 1 to 5 µM

Exercise: Entry O=C(c1nnc(-c2ccccn2)o1)N1CCc2[nH]cnc2[C@@H]1c1cc2cccc(Cl)n2n1 , system human PAH with the R408W mutation (Homo sapiens, UniProt P00439, R408W): what AC50 was measured?
Key: > 5 µM

Exercise: Short answer please: AC50, human PAH with the R408W mutation (Homo sapiens, UniProt P00439, R408W), entry Cc1ncoc1C(=O)N1CCc2[nH]cnc2[C@@H]1c1cc2cccc(Cl)n2n1
Key: 1 to 5 µM

Exercise: Lab note: need AC50 for Cc1c(-c2nnc(C(=O)N3CCc4[nH]cnc4[C@@H]3c3cc4cccc(C(F)F)n4n3)o2)cnn1C on human PAH with the R408W mutation (Homo sapiens, UniProt P00439, R408W), anyone have it?
Key: 1 to 5 µM

Exercise: Kindly state the measured AC50 obtained for Cc1c(-c2nnc(C(=O)N3CCc4[nH]cnc4[C@H]3c3cc4c(Cl)cccn4n3)o2)cnn1C with human PAH with the R408W mutation (Homo sapiens, UniProt P00439, R408W).
Key: < 0.5 µM

Exercise: Missing value: AC50, human PAH with the R408W mutation (Homo sapiens, UniProt P00439, R408W), entry COc1ccc(-c2nnc(C(=O)N3CCc4[nH]cnc4[C@H]3c3cc4c(Cl)cccn4n3)o2)nc1 . Fill in?
Key: < 0.5 µM

Exercise: Recorded AC50 for Cn1ccc(-c2nnc(C(=O)N3CCc4[nH]cnc4[C@@H]3c3cc4cccc(C(F)(F)F)n4n3)o2)n1 with human PAH with the R408W mutation (Homo sapiens, UniProt P00439, R408W), please?
Key: > 5 µM

Exercise: Notebook entry, human PAH with the R408W mutation (Homo sapiens, UniProt P00439, R408W) assay: AC50 of Cn1ncnc1C(=O)N1CCc2[nH]cnc2[C@H]1c1cc2c(Cl)cccn2n1 = ?
Key: < 0.5 µM

Exercise: Give AC50 (human PAH with the R408W mutation (Homo sapiens, UniProt P00439, R408W)) of the following molecule: O=C(CC1CC(F)C1)N1CCc2[nH]cnc2[C@@H]1c1cc2ccccn2n1 (stereo partly drawn)
Key: 1 to 5 µM

Exercise: # get_value(readout= AC50, system= human PAH with the R408W mutation (Homo sapiens, UniProt P00439, R408W)) for CC(C)(F)c1nnc(C(=O)N2CCc3[nH]cnc3[C@H]2c2cc3c(C(F)F)cccn3n2)o1
Key: < 0.5 µM
